Test system: OVCAR-5
Assay: NCI tumour cell line growth inhibition, 48 h
Activity calls are given as the source filed them. Cut-off read from the data, not from the text of the source: active = GI50 up to about 1.1 µM and inactive = higher.
Give one outcome, nothing more. List: active, inactive

>>> cat("CCCCCCC(C)CC(CCCCCC)NCCOC(=O)c1ccc([N+](=O)[O-])cc1 (centres undefined)")
"inactive"
>>> cat("CCN(CC)C1=Nc2ccccc2-n2ccnc2C1")
"inactive"

Exercise: Hi team, can someone confirm the assay call for Cc1ccc(S(=O)(=O)N/N=C/c2c(O)ccc3ccccc23)cc1 ?
Key: inactive

Exercise: Hi team, can someone confirm the assay call for CC1C[C@]2(C[C@@H](C)C(=O)O2)O[C@@H]2CC3(C)[C@@H]4CCC5C(C)(C)OC(=O)C[C@H]6OO[C@]4(CC[C@]3(C)C12)CC56O (some centres undefined) ?
Key: inactive

###

System: SNB-19
Test: NCI tumour cell line growth inhibition, 48 h
The source made the active and inactive calls. No stated cut-off is given here; in the data, active = GI50 up to about 1.1 µM and inactive = higher.
The following compounds are listed with their measured GI50 values.

Some solved cases for reference:
>>> result_value("c1ccc2c(Cc3nnc4sc(SSc5nn6c(Cc7c[nH]c8ccccc78)nnc6s5)nn34)c[nH]c2c1")
"31 µM (inactive)"
>>> result_value("CCCCc1c(O)nc(Nc2nc3ccccc3[nH]2)[nH]c1=O")
"> 100 µM (inactive)"
>>> result_value("CCOC(=O)CCCO")
"> 100 µM (inactive)"
>>> result_value("CC(=O)n1nc(-c2ccccc2)n(/N=C/c2ccc([N+](=O)[O-])o2)c1=O")
"16.3 µM (inactive)"
>>> result_value("O=C1CCC(=O)N1n1c(Cc2ccccc2)n[nH]c1=O")
"> 100 µM (inactive)"

Noted for CCOC(=O)/C(=N/Nc1ccc(Cl)cc1)N1C(=S)N(C)N=C(C)C=C1S : its GI50 reads 34.6 µM (inactive)

Noted for Cc1cc(Cl)ccc1NC(=O)C(=O)C(C(=O)c1ccccc1)C1OC(=O)c2ccccc21 (configuration not stated) : its GI50 reads > 100 µM (inactive)

Noted for COc1ccc2c(c1)C(=O)C1CCC(=O)N1C2c1ccc2c(c1)OCO2 (configuration not stated) : its GI50 reads 13.8 µM (inactive)

Noted for COc1ccc2c(c1O)C13CCN(C)C(C2)C1CCC1(C3)OCCO1 (configuration not stated) : its GI50 reads > 100 µM (inactive)

Noted for O=C(c1nc2ccccc2nc1O)C(O)c1ccco1 (configuration not stated) : its GI50 reads > 100 µM (inactive)

Noted for N=C1OC(CN2CCN(c3ccccc3)CC2)CN1C(=S)Nc1ccccc1 (configuration not stated) : its GI50 reads 96.4 µM (inactive)

###

The following compounds are listed with their measured GI50 values.
Tested on: NCI-H23
Assay: NCI tumour cell line growth inhibition, 48 h
The source made the active and inactive calls. Cut-off read from the data, not from the text of the source: active = GI50 up to about 1.1 µM and inactive = higher.

Some solved cases for reference:
>>> result_value("CCCCCCCCC[n+]1cccc(C2C(C(=O)OCC)=C(C)NC(C)=C2C(=O)OCC)c1")
"4.36 µM (inactive)"
>>> result_value("COC(=O)/C(C#N)=C(/NCc1ccccc1)Nc1ccccc1")
"> 100 µM (inactive)"
>>> result_value("CCC1CN2CCc3cc(OC)c(OC)cc3C2CC1CC1c2cc(OC)c(OC)cc2CCN1C(=O)CNC(=O)OC(C)(C)C (centres undefined)")
"21.4 µM (inactive)"

Noted for CN(C)c1ccc(/N=C2/NC(=N\c3ccccc3)/C(=N/c3ccccc3)S2)cc1 : its GI50 reads > 100 µM (inactive)

Noted for COc1ccc(/N=C2\C(=O)Nc3ccc(Br)cc32)cc1 : its GI50 reads 18.2 µM (inactive)

Noted for COC(=O)/C=C(\C(=O)OC)c1cc(C)c2cc(C(C)C)ccc(C)c1-2 : its GI50 reads 31.8 µM (inactive)

Noted for Cc1c(NC(=O)CSC(=S)N(C)C)c(=O)n(-c2ccccc2)n1C : its GI50 reads > 100 µM (inactive)

Noted for CCOC(=O)/C(=C/c1ccc(C#N)cc1)N(CC)CC : its GI50 reads > 100 µM (inactive)

Noted for Cc1csc2nc(-c3ccc([N+](=O)[O-])cc3)c(/C=N/N=C(N)N)n12 : its GI50 reads 1.64 µM (inactive)

Noted for COc1ccc2c(c1)CCc1cc(OC)ccc1/[N+]([O-])=[N+]\2[O-] : its GI50 reads 23.1 µM (inactive)

Noted for CCc1cc2c(cc1O)CC[C@@H]1[C@@H]2CC[C@]2(C)[C@@H](O)CC[C@@H]12 : its GI50 reads 7.14 µM (inactive)

Noted for O=Cc1c(C(=O)O)[nH]c(=O)[nH]c1=O : its GI50 reads > 100 µM (inactive)

Noted for COc1ccc2[nH]c(C(=O)N3CC(CCl)c4ccc(N)cc43)cc2c1 (centres undefined) : its GI50 reads 0.0726 µM (active)

Noted for N#C/C(=N/Nc1[nH]cnc1C(N)=O)C(=O)Nc1ccccc1 : its GI50 reads 56.8 µM (inactive)

Noted for CC12CC(C/C1=N/O)C(C)(C)C2 (centres undefined) : its GI50 reads > 100 µM (inactive)

Noted for COc1ccc(/C=C2\C(=O)N(C(=O)Cc3ccccc3)N=C2C)cc1OC : its GI50 reads > 100 µM (inactive)

Noted for Cn1cco/c1=N/c1ccc(Cl)c(Cl)c1 : its GI50 reads > 10 µM (inactive)

Noted for CC1=CCP(C(F)(F)F)P(C(F)(F)F)C1 (centres undefined) : its GI50 reads > 100 µM (inactive)

Noted for O=C(/C=C(\O)c1cc(-c2ccccc2)n(-c2ccccc2)n1)c1ccccc1 : its GI50 reads 9.71 µM (inactive)

###

System: KM12
Experiment: NCI tumour cell line growth inhibition, 48 h
Activity calls are given as the source filed them. No stated cut-off is given here; in the data, active = GI50 up to about 1.1 µM and inactive = higher.
MEASURE: GI50

Some solved cases for reference:
>>> result_value("N[C@@H]1CCN(c2c(F)cc3c(=O)c(C(=O)O)cn4c3c2Oc2c-4ccc3c2ccc2ccccc23)C1")
"4.38 µM (inactive)"
>>> result_value("Cc1ccc(-c2n[nH]c(CC#N)n2)cc1")
"> 100 µM (inactive)"
>>> result_value("CC(C)CCNC(=O)C(CC(C)C)NC(=O)[C@H]1O[C@@H]1C(=O)O (stereo partly specified)")
"> 100 µM (inactive)"
>>> result_value("ClCCN(CCCl)c1ccc(/C=N/Nc2ccnc3ccccc23)cc1")
"1.58 µM (inactive)"
>>> result_value("O=C(NNc1nc(-c2ccccc2)cs1)C(F)(F)F")
"30.1 µM (inactive)"

Noted for CCC(=O)NCCc1c[nH]c2ccc(OC)cc12 : its GI50 reads > 100 µM (inactive)

Noted for CCN(CC)c1ccc2c(c1)Oc1ccc(N(C(C)=O)c3ccccc3)cc1C21OC(=O)c2ccccc21 (stereo unspecified) : its GI50 reads 23 µM (inactive)

Noted for CCOC(=O)/C(=C/c1cccc(Cl)c1)N(CC)CC : its GI50 reads 39.1 µM (inactive)

Noted for O=C(O)c1ccc(OCc2ccccc2)c(Cl)c1 : its GI50 reads 30.3 µM (inactive)

Noted for CN1CCC(n2[nH]c(-c3ccccc3)c(Cc3ccccc3)c2=O)CC1 [BENZPIPERYLON] : its GI50 reads > 100 µM (inactive)

###

Test system: SNB-19
Assay: NCI tumour cell line growth inhibition, 48 h
Active and inactive are the calls of the source. Rule as the data show it: active = GI50 up to about 1.1 µM and inactive = higher.
Give one outcome, nothing more. List: active, inactive

>>> cat("Cc1ccccc1/N=N/c1cc(C)c(/N=N/c2c(O)ccc3ccccc23)cc1C")
"inactive"
>>> cat("O=C1CCCCCCCCCCC1CN1CCCC1 (stereo unspecified)")
"inactive"
>>> cat("CSc1nc(O)c(C#N)c(-c2ccccc2)n1")
"inactive"
>>> cat("CC(C)c1ccccc1NC(=O)C(=O)Cc1nc2ccccc2s1")
"inactive"
>>> cat("C[N+](C)(Cc1ccc(NC(=O)CCCC(=O)ON2C(=O)CCC2=O)cc1)c1ccccc1")
"active"
>>> cat("COc1ccc(/N=C2\\C(=O)Nc3ccc(Br)cc32)cc1")
"inactive"
>>> cat("COC(=O)/C(C#N)=C(/NCc1ccccc1)Nc1ccccc1")
"inactive"
>>> cat("Cc1ccccc1NC(=O)Cc1csc2[n+]1C(=O)/C(=C/c1ccc([N+](=O)[O-])cc1)S2")
"inactive"

Exercise: Hi team, can someone confirm the assay call for Nc1nc(Nc2ccc(Cl)cc2)sc1C(=O)c1c[nH]c2ccccc12 ?
Key: inactive

Exercise: Hi team, can someone confirm the assay call for COC(=O)c1c(-c2ccccc2)c2sc3ccccc3n2c1N ?
Key: inactive

Exercise: Hi team, can someone confirm the assay call for Cc1csc2nc(-c3ccc([N+](=O)[O-])cc3)c(/C=N/N=C(N)N)n12 ?
Key: inactive

###

System: MDA-MB-435
Assay: NCI tumour cell line growth inhibition, 48 h
Calls of active or inactive are those of the source. No stated cut-off is given here; in the data, active = GI50 up to about 1.1 µM and inactive = higher.
The following compounds are listed with their measured GI50 values.

Some solved cases for reference:
>>> result_value("CCCCN1C(=O)C[C@H]2[C@@H]3CCc4cc(OCCN5CCCC5)ccc4[C@H]3CC[C@]2(C)C1=O")
"6.31 µM (inactive)"
>>> result_value("Cn1ccnc1Sc1ccc(/C=N\\NC(=O)c2cccc(F)c2)cc1[N+](=O)[O-]")
"61.1 µM (inactive)"

Tested on MDA-MB-435, the item O=C(CN1CCOCC1)c1ccc2[nH]c(=O)oc2c1 showed GI50 equal to > 100 µM (inactive)
